inhibition values for the molecules below.
- Test system: Epidermal growth factor receptor (Homo sapiens), P00533 [L858R,T790M]
- Sequence (P00533 whole entry T790M/L858R, looked up): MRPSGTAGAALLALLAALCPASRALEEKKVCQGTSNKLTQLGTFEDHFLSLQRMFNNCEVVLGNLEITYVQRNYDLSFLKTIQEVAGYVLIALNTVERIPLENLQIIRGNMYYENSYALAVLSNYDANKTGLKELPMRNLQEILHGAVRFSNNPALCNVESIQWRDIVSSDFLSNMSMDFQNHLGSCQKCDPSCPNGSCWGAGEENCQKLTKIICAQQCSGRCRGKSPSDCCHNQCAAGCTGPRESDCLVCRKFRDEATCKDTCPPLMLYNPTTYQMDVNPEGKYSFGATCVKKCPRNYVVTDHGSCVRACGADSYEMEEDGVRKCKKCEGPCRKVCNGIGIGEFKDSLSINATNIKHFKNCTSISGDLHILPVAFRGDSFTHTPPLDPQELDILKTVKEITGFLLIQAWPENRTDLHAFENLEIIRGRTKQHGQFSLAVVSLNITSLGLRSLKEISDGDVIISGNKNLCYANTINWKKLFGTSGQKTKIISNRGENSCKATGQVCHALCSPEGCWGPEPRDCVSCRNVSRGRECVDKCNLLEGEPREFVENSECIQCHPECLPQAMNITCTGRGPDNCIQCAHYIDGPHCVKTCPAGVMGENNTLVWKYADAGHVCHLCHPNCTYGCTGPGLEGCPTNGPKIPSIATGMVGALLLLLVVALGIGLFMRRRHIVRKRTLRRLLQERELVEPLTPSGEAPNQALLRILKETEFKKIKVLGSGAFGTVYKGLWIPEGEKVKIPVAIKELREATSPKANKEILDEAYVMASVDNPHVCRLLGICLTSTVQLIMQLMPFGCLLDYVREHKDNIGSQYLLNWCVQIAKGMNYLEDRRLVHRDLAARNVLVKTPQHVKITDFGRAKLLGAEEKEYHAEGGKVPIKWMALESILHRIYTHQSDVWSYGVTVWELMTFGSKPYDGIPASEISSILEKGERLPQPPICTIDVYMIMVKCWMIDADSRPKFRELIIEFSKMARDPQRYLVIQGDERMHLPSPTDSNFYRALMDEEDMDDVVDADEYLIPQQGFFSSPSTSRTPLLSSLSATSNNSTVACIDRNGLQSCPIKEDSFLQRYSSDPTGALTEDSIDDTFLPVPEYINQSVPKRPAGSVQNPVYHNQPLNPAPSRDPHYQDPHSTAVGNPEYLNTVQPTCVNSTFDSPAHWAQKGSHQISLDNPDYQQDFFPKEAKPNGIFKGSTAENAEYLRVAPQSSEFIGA
- conditions.used: at 0.1 µM
Numeric only. Scale: %

| molecule | inhibition / % |
| --- | --- |
| C[C@@H](Oc1cc(-n2cnc3ccc(OCC4CCN(C)CC4)cc32)sc1C(N)=O)c1ccccc1Cl | -2.11 |

# context switch: different molecule, same inhibition
Query block: Need inhibition, item COc1ccc2ncn(-c3cc(O[C@H](C)c4ccccc4Cl)c(C(N)=O)s3)c2c1
Result block: 1.69

----------
As shown below, each of these compounds has a reported inhibition value.
- test.target: Protein-tyrosine kinase 2-beta (Homo sapiens) (UniProt Q14289);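 note: reported as mean percent inhibition of PYK2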
- Sequence (Q14289 whole entry, looked up): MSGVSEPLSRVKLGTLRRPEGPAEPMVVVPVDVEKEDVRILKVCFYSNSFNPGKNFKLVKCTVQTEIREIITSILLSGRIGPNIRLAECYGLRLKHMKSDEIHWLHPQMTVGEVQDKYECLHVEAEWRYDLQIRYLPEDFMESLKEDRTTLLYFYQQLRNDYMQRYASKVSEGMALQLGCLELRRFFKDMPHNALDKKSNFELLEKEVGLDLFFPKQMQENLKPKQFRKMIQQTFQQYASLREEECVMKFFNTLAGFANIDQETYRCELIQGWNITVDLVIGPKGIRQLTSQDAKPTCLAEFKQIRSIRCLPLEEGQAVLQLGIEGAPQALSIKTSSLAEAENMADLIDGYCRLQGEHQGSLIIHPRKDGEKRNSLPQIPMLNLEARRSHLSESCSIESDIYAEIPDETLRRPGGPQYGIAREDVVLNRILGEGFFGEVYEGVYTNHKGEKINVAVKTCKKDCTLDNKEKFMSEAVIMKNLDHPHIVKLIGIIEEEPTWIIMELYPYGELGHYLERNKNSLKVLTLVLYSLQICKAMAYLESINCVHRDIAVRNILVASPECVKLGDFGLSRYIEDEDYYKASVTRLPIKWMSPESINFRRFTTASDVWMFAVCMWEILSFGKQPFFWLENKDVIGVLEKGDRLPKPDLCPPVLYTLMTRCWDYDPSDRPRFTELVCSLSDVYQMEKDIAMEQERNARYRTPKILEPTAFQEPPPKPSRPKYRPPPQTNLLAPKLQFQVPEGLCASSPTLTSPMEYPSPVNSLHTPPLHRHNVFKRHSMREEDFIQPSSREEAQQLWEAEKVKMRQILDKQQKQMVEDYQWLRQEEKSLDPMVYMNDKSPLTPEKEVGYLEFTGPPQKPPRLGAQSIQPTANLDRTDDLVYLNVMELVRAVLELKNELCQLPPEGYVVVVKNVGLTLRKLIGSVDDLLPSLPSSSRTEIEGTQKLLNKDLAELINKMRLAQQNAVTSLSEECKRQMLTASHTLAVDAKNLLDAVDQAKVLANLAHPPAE
- conditions.used: at 0.1 µM
Please give a number only; it is taken to be in %.

| compound | test.target | inhibition, % |
| --- | --- | --- |
| CCN(CC)Cc1ccc(Nc2nccc(-c3cnn4ncccc34)n2)cc1 | Protein-tyrosine kinase 2-beta (Homo sapiens) (UniProt Q14289) | 24.8 |

Query block: Need inhibition of O=C(Nc1n[nH]c2cc(-c3ccccc3)ccc12)C1CC1 , thanks.
Result block: 11.3

Query block: Give the measured inhibition of CS(=O)(=O)CCNCc1cc(-c2cc3c(Nc4ccc(OCc5cccc(F)c5)c(Cl)c4)ncnc3s2)cs1 .
Result block: 4.47

Query block: Which measured inhibition value corresponds to Fc1ccc(-c2ncn(C3CCNCC3)c2-c2ccnc(Oc3ccc(F)c(F)c3)n2)cc1 ?
Result block: 4.15

Query block: # get_value(readout='inhibition', item= NCc1ccc(-n2c(-c3nonc3N)nc3cnccc32)cc1 )
Result block: 11.2

----------
- test.target: Serine/threonine-protein kinase PAK 5 (Homo sapiens) (UniProt Q9P286);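 note: values are mean percent inhibition of PAK5 from a kinase inhibitor set screen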
- Sequence (Q9P286 whole entry, looked up): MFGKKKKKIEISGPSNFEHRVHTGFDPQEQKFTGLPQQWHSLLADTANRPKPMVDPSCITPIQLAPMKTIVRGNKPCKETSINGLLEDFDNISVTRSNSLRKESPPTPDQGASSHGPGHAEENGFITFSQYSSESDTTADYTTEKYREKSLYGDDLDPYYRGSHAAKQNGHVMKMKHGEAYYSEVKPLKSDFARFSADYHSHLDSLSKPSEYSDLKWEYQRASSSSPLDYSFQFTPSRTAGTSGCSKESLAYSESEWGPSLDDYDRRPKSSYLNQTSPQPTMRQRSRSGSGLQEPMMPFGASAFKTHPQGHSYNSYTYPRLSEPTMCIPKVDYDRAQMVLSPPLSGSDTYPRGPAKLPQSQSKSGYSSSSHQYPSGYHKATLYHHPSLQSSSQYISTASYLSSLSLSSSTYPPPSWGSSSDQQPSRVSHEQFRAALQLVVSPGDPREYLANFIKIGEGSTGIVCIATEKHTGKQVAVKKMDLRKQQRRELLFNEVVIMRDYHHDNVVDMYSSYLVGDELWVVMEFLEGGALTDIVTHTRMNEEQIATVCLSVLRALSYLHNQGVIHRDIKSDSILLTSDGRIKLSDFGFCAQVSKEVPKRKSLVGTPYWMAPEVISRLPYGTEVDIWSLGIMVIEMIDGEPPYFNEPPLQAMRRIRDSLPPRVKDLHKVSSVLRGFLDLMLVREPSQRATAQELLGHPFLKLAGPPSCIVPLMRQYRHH
- conditions.used: at 0.1 µM
Reported inhibition by item:
API: value field is a number in %; no unit string.

These solved cases illustrate the format of a correct answer.
| structure | test.target | inhibition [%] |
| --- | --- | --- |
| COc1ccc(-c2ccc3c(NC(=O)C4CC4)n[nH]c3n2)cc1 | Serine/threonine-protein kinase PAK 5 (Homo sapiens) (UniProt Q9P286) | -5.83 |
| O=C(Nc1n[nH]c2cc(-c3cc(F)ccc3F)ccc12)C1CC1 | Serine/threonine-protein kinase PAK 5 (Homo sapiens) (UniProt Q9P286) | 3.42 |
| O=C(NCC1CC1)c1ccc(-c2cccc(C(=O)NC3CC3)c2)cc1 | Serine/threonine-protein kinase PAK 5 (Homo sapiens) (UniProt Q9P286) | 9.42 |

Please examine the following record next.
Query block: # inhibition lookup, item COc1ccc(C2=C(N3CCc4ccccc43)C(=O)NC2=O)cc1
Result block: 4.64

----------
- Tested on: Platelet-derived growth factor receptor alpha (Homo sapiens), P16234 [T674I]
- Sequence (P16234 whole entry T674I): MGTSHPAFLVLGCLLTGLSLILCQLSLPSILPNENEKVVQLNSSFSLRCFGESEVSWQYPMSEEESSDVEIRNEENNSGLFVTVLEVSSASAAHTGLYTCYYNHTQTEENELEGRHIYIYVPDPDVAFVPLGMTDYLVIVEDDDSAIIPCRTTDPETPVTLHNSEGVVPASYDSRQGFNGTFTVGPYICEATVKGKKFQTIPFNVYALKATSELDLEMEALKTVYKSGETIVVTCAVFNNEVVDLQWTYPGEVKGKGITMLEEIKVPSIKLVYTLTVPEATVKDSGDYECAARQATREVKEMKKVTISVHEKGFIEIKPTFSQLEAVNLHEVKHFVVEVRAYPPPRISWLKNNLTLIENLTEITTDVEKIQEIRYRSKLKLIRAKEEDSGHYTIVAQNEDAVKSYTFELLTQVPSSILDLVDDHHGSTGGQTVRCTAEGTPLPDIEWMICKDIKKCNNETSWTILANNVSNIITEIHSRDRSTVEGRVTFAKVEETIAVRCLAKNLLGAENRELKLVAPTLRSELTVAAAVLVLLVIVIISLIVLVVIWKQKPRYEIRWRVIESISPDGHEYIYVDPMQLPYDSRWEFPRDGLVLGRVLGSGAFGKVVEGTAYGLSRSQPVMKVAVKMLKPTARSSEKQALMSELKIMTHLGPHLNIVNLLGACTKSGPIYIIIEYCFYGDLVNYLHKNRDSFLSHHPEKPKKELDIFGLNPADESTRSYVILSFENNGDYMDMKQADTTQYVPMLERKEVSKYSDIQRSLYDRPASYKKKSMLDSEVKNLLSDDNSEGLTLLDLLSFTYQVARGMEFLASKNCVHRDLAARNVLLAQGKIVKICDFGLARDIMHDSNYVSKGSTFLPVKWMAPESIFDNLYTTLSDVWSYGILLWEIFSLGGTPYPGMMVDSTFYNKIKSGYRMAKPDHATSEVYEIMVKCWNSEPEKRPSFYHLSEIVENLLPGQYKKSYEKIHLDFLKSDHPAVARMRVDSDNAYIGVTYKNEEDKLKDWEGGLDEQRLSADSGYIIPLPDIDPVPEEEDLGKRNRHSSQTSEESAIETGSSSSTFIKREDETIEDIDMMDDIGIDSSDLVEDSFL
- conditions.used: at 1 µM
measured.parameter: inhibition (%)
Give the number; % is assumed, so skip it.

Here are 8 compounds together with their reported answers.
| structure | test.target | display.unit | measured |
| --- | --- | --- | --- |
| CNC(=O)c1cncc(/C=C/c2c(C)cccc2C)c1 | Platelet-derived growth factor receptor alpha (Homo sapiens), P16234 [T674I] | % | 1.37 |
| N#Cc1ccc(Oc2nccc(-c3c(-c4ccc(F)cc4)ncn3C3CCNCC3)n2)cc1 | Platelet-derived growth factor receptor alpha (Homo sapiens), P16234 [T674I] | % | 8.12 |
| Fc1ccc(-c2ncn(CCCN3CCOCC3)c2-c2ccncc2)cc1 | Platelet-derived growth factor receptor alpha (Homo sapiens), P16234 [T674I] | % | -0.15 |
| NC(=O)Cc1ccccc1Oc1nccc(-c2c(-c3ccc(F)cc3)ncn2C2CCNCC2)n1 | Platelet-derived growth factor receptor alpha (Homo sapiens), P16234 [T674I] | % | 2.14 |
| Cc1ccc(C(=O)NC2CCC2)cc1-c1ccc(C(=O)NCC2CC2)cc1 | Platelet-derived growth factor receptor alpha (Homo sapiens), P16234 [T674I] | % | 3.17 |
| NS(=O)(=O)c1ccc(Nc2cc(-c3ccc(O)c(F)c3)n[nH]2)cc1 | Platelet-derived growth factor receptor alpha (Homo sapiens), P16234 [T674I] | % | 73.5 |
| Cc1ccc(NC(=O)c2ccoc2)cc1-c1ccc(C(=O)NCC2CC2)cc1 | Platelet-derived growth factor receptor alpha (Homo sapiens), P16234 [T674I] | % | 4.2 |
| c1ccc(-c2n[nH]cc2-c2ccnc(-c3ccc(OCCN4CCOCC4)cc3)c2)nc1 | Platelet-derived growth factor receptor alpha (Homo sapiens), P16234 [T674I] | % | -0.97 |

Query block: Entry CN(C)CCOc1ccc(-c2cc(-c3ccc4c(c3)CCC4=NO)c(-c3ccncc3)o2)cc1 has what inhibition?
Result block: 2.19

Query block: What measured inhibition goes with CN(c1ccc(NC(=O)Nc2c(Cl)cccc2Cl)cc1)c1ccnc(Nc2cccc(CS(C)(=O)=O)c2)n1 ?
Result block: 97.5

Query block: Sample C[C@@H](Oc1cc(-n2cnc3ccc(OCC4CCN(C)CC4)cc32)sc1C(N)=O)c1ccccc1Cl — what was its inhibition?
Result block: 62.1

Query block: Tell me the measured inhibition of COc1ccc2ncn(-c3cc(O[C@H](C)c4ccccc4Cl)c(C(N)=O)s3)c2c1 , please.
Result block: 9.98

Query block: What value of measured inhibition is listed for COc1cc(N2CCN(C(C)C)CC2)ccc1Nc1nc(Nc2ccc(F)cc2C(=O)NC[C@@H](O)CO)c2cc[nH]c2n1 ?
Result block: 9.18
